Biological target: human, KCNT1 (Homo sapiens (Human), UniProt Q5JUK3)
Sequence (Q5JUK3 whole entry): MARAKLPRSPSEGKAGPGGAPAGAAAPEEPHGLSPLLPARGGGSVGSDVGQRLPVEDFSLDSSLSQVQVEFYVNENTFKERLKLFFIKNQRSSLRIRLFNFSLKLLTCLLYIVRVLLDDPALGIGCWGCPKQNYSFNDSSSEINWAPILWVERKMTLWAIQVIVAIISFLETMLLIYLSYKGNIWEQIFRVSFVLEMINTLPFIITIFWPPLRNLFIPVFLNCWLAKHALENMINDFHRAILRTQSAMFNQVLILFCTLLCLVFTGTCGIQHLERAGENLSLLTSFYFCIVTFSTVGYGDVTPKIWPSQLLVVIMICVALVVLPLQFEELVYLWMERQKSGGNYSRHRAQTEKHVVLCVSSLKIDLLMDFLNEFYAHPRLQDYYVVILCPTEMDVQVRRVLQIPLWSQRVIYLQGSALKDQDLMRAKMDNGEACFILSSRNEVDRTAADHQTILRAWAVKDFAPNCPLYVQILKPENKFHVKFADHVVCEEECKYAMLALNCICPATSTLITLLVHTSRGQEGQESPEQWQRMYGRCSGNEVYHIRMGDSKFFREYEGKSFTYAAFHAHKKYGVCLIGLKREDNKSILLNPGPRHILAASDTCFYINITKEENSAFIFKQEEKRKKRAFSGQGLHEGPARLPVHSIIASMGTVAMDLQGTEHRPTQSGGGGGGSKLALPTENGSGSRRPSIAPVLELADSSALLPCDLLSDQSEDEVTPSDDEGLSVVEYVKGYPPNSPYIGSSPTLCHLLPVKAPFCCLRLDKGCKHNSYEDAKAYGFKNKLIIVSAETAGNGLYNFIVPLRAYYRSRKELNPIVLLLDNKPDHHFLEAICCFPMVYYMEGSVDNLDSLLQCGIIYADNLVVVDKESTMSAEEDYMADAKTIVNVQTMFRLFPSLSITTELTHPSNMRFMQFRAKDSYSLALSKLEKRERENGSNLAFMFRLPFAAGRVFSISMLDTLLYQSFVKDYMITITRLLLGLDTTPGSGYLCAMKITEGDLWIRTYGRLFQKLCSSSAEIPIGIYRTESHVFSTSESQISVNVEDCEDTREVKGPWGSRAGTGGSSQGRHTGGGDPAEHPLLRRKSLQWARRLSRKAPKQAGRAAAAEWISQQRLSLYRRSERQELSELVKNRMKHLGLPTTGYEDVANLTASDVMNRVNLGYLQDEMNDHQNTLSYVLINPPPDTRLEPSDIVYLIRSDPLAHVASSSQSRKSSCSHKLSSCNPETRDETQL
Assay: FLIPR Tl/K Flux Assay
Conditions: HEK293 cells stably expressing human KCNT1; Tl+ flux stimulated with EC80 of agonist Loxapine
pIC50: −log10 of the molar value. Structures can show the parent of a compound that is named as a salt.

>  <molecule>
O=C(N[C@H]1CCc2nn(-c3ccnc(C(F)(F)F)c3)cc21)c1cc(F)cc(F)c1 [Compound I-100a]

>  <pIC50>
> 6.60

$$$$
>  <molecule>
COc1cc(-c2nc3c(o2)CCC[C@@H]3NC(=O)c2cccc(C#N)c2)ccn1 [Compound I-294a]

>  <pIC50>
> 6.60

$$$$
>  <molecule>
Cc1cnc(C(F)(F)F)cc1-c1cc2n(n1)CCC[C@@H]2NC(=O)c1nc(C(F)(F)F)nn1C [Compound I-303a]

>  <pIC50>
> 6.60

$$$$
>  <molecule>
COc1cc(-c2cc3n(n2)CC[C@@H]3NC(=O)c2cc3cccnn3c2)ccn1 [Compound I-292a]

>  <pIC50>
> 6.60

$$$$
>  <molecule>
N#Cc1cccc(C(=O)N[C@H]2CCCCn3cc(-c4ccnc(C(F)(F)F)c4)cc32)c1 [Compound I-263a]

>  <pIC50>
> 6.60

$$$$
>  <molecule>
O=C(N[C@H]1CCCn2nc(-c3ccnc(C(F)(F)F)c3)cc21)c1cc2n(n1)CCO2 [Compound I-436a]

>  <pIC50>
< 6.00

$$$$
>  <molecule>
N#Cc1cccc(C(=O)N[C@H]2CCCCn3nc(-c4ccnc(C5CC5)c4)cc32)c1 [Compound I-457a]

>  <pIC50>
> 6.60

$$$$
>  <molecule>
COCc1cc(C(=O)NC2CCCc3nn(-c4ccnc(C(F)(F)F)c4)cc32)n(C)n1 (racemic)

>  <pIC50>
< 6.00

$$$$
>  <molecule>
O=C(N[C@@H]1CCc2nn(-c3ccnc(C(F)(F)F)c3)cc21)C1CCC(F)(F)CC1 [Compound I-106b]

>  <pIC50>
< 6.00

$$$$
>  <molecule>
CC(C)(C)OC(=O)N[C@H]1CCc2nn(-c3ccnc(C(F)(F)F)c3)cc21 [Compound I-105a]

>  <pIC50>
> 6.60

$$$$
>  <molecule>
O=C(N[C@H]1CCn2nc(-c3ccnc(C(F)(F)F)c3)cc21)c1cnc(C(F)(F)F)cn1 [Compound I-571a]

>  <pIC50>
> 6.60

$$$$
>  <molecule>
CCOc1cc(F)cc(C(=O)N[C@H]2CCn3nc(-c4ccnc(C(F)(F)F)c4)cc32)c1 [Compound I-568a]

>  <pIC50>
> 6.60

$$$$
>  <molecule>
COc1cc(-c2cc3n(n2)CCC[C@@H]3NC(=O)c2cc(C#N)cc(C(F)(F)F)c2)ccn1 [Compound I-284a]

>  <pIC50>
> 6.60

$$$$
>  <molecule>
CS(=O)(=O)c1ccc(C(=O)N[C@@H]2CCc3nn(-c4ccnc(C(F)(F)F)c4)cc32)cc1 [Compound I-96b]

>  <pIC50>
< 6.00

$$$$
>  <molecule>
Cn1nc(C(F)(F)F)cc1C(=O)N[C@H]1CCCn2nc(-c3ccnc(OC(F)(F)F)c3)cc21 [Compound I-391a]

>  <pIC50>
> 6.60

$$$$
>  <molecule>
Cn1nc(C(F)(F)F)cc1C(=O)NC1CCCc2nn(-c3ccn4ccnc4c3)cc21 (racemic)

>  <pIC50>
< 6.00

$$$$
>  <molecule>
Cc1ccccc1C(=O)NC1CCCc2nn(-c3ccnc(C(F)(F)F)c3)cc21 (racemic)

>  <pIC50>
< 6.00

$$$$
>  <molecule>
CCOc1cc(C(=O)N[C@H]2CCCCn3nc(-c4ccnc(C(F)(F)F)c4)cc32)ccn1 [Compound I-283a]

>  <pIC50>
> 6.60

$$$$
>  <molecule>
COc1cc(-c2cc3n(n2)CC[C@H]3NC(=O)c2cc(C(F)(F)F)nn2C)c(C(F)(F)F)cn1 [Compound I-172b]

>  <pIC50>
< 6.00

$$$$
>  <molecule>
CCc1cc(C#N)cc(C(=O)N[C@H]2CCn3nc(-c4ccnc(C(F)(F)F)c4)cc32)c1 [Compound I-200a]

>  <pIC50>
> 6.60

$$$$
>  <molecule>
Cn1nc(C(F)(F)F)cc1C(=O)N[C@H]1CCCc2nc(-c3ccnc(C(F)(F)F)c3)sc21 [Compound I-82a]

>  <pIC50>
> 6.60

$$$$
>  <molecule>
Cc1cc(C#N)cc(C(=O)N[C@H]2CCCn3nc(-c4ccnc(C5CC5)c4)cc32)c1 [Compound I-281a, TFA salt]

>  <pIC50>
> 6.60

$$$$
>  <molecule>
Cn1nc(C(F)(F)F)cc1C(=O)N[C@@H]1CCc2nn(-c3ccnc(C(C)(F)F)c3)cc21 [Compound I-77b]

>  <pIC50>
6.00 to 6.30

$$$$
>  <molecule>
N#Cc1cc(C(=O)N[C@H]2CCCn3nc(-c4ccnc(C(F)(F)F)c4)cc32)ccn1 [Compound I-328a]

>  <pIC50>
> 6.60

$$$$
>  <molecule>
N#Cc1cc(C(=O)N[C@H]2CCn3nc(-c4ccnc(C(F)(F)F)c4)cc32)cc(C(F)(F)F)c1 [Compound I-288a]

>  <pIC50>
> 6.60

$$$$
>  <molecule>
O=C(N[C@H]1CCCn2nc(-c3cc(C(F)(F)F)ncc3F)cc21)c1ccnc(OC(F)(F)F)c1 [Compound I-199a]

>  <pIC50>
> 6.60

$$$$
>  <molecule>
O=C(N[C@@H]1CCCc2nc(-c3cc(C4CC4)ncc3F)oc21)c1cncc(C(F)(F)F)n1 [Compound I-511b]

>  <pIC50>
< 6.00

$$$$
>  <molecule>
Cn1nc(C(F)(F)F)cc1C(=O)N[C@H]1CCCc2nc(-c3cc(C4CC4)ncc3F)oc21 [Compound I-166a]

>  <pIC50>
> 6.60

$$$$
>  <molecule>
CC(C)(O)c1cc(F)cc(C(=O)N[C@H]2CCc3nn(-c4ccnc(C(F)(F)F)c4)cc32)c1 [Compound I-563a]

>  <pIC50>
> 6.60

$$$$
>  <molecule>
Cc1cc(C#N)cc(C(=O)N[C@H]2CCn3nc(-c4ccnc(C(F)(F)F)c4)cc32)c1 [Compound I-334a]

>  <pIC50>
> 6.60

$$$$
